target.of.assay: recombinant homotrimeric HA A/Egypt/3300-NAMRU3/08 H5N1 (Influenza A virus A/Egypt/3300-NAMRU3/2008(H5N1))
assay.comment: protein microarray, purified IgG, trimeric HA
test.conditions: remark: other sources report otherwise
measurement.kind: Trimeric HA Binding: RLU
Dear colleague, please send the value followed by its unit.

Entry TCN-541 (5062_M11) (antibody, V domains shown) VH: QVQLQESGPGLVKPSETLSLTCTVSGGSINSYYWNWIRQPPGKGLEWIGYIYHSGSTNYNPSLKSRVTISVDTSKNQFSLQLSSVTAADTAVYYCARLRTDYGDPDSVYYYGMDVWGQGTTVTVSS VL: SYELTQPPSVSVSPGQTARITCSGDALPKQNAYWYQQKPGQAPVLLIYKDSERPSGIPERFSGSSSGTTVTLTISGVQAEDEADYYCQSADSSGTSWVFGGGTKLTVL has what Trimeric HA Binding: RLU?
791 RLU

Now try TCN-552 (5249_I23) (antibody, V domains shown) VH: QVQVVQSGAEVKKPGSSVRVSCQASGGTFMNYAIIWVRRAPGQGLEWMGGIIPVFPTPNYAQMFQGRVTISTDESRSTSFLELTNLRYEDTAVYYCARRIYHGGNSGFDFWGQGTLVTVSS VL: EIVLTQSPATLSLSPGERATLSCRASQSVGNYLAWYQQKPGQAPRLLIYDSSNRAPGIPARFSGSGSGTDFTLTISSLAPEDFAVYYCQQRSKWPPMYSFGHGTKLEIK .
20300 RLU

Now try TCN-528 (5087_P17) (antibody, V domains shown) VH: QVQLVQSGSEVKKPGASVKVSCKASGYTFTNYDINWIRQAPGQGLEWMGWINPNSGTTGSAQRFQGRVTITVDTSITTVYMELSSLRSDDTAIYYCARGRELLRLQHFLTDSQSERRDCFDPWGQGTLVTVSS VL: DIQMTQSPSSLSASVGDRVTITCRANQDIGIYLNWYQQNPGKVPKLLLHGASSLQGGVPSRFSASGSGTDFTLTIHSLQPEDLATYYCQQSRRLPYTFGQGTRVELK .
25600 RLU

The measured values listed here are drawn from patent US20150086555A1.
